System: Mythimna separata
testMethodNotes: Antifeedant activity against second-instar larvae of Mythimna separata (Oriental armyworm) in compound treated leaves assessed as growth inhibition measured after 5 days by chronic growth bioassay
Assay type: functional, organism-based
conditions: 120 h, read-out: EC50
Provide the recorded EC50 for the entries that follow.

Form: item CC(C)(C)n1ncc(OCc2nnc(-c3ccco3)o2)c(Cl)c1=O ; test system Mythimna separata; EC50: > 300 µg/mL

Per the reported Mythimna separata data, CC(C)(C)n1ncc(OCc2nnc(-c3ccc([N+](=O)[O-])cc3)o2)c(Cl)c1=O has EC50 of > 300 µg/mL

EC50 value, target or system Mythimna separata, for Cc1cc(C)cc(-c2nnc(CSc3cnn(C(C)(C)C)c(=O)c3Cl)o2)c1 : > 300 µg/mL

Cited source: ChEMBL document CHEMBL3046697
